assayed_system: Glycoside hydrolase family 92 (BT_3962) (Bacteroides thetaiotaomicron, UniProt Q8A0Q9)
Sequence (Q8A0Q9 whole entry): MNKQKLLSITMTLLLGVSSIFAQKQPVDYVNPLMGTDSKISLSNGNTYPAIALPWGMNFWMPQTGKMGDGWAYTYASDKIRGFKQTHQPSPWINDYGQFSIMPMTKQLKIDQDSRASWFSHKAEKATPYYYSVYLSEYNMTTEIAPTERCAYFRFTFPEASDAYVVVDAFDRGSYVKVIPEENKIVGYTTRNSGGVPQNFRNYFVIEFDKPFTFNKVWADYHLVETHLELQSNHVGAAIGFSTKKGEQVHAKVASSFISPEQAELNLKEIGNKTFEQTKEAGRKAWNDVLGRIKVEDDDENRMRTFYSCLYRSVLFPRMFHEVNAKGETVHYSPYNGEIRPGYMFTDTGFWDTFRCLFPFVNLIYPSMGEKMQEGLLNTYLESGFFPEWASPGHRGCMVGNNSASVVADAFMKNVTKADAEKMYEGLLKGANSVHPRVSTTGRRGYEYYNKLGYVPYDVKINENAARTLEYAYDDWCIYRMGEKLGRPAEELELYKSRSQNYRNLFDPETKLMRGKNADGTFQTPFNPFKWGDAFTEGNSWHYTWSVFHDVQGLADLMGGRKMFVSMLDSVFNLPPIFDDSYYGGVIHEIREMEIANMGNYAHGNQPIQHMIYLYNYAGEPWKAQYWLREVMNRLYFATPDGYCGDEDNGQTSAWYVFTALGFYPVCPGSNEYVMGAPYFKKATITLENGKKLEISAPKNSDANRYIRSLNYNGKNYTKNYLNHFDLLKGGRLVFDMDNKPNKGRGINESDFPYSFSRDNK
property: Ki (µM)
Use µM as the unit, but write only the number.

QUERY: Hello, I am looking for reported Ki with Glycoside hydrolase family 92 (BT_3962) (Bacteroides thetaiotaomicron, UniProt Q8A0Q9) for OC[C@@H]1[C@@H](O)[C@H](O)[C@H](O)c2nccn21 . Could you help?
RESULT: 270
